System: PIM2;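 also: KINOMEscan kinase panel screen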
Conditions: concentration: 1 μM, replicates: in singlicate; n = 1
Please go through the items and note down their %Inh.
Answers are plain numbers, in %.

Use these answered entries as a reference point.
In [3]: df
Out[3]:
                                   compound  property  value_observed
0  CN1c2ccc(NCc3ccc(F)cc3)cc2-c2c(cnn2C)S1(=O)=O      %Inh               2
1  CN1c2ccc(CNc3ccc(F)cc3)cc2-c2c(cnn2C)S1(=O)=O      %Inh              14
2  COc1ccc(S(=O)(=O)NC2CCN(c3cc(C)nc(Nc4cccc(C#N)c4)n3)CC2)cc1.O=C(O)C(F)(F)F [GSK1653539]      %Inh               0
3  CC(C)(CN)c1nc(-c2ccc(Cl)c(O)c2)c(-c2ccncc2)[nH]1.O=C(O)C(F)(F)F [SB-477794]      %Inh               0
4  Cl.Cl.Cl.Fc1ccc(-c2ncn(C3CCNCC3)c2-c2ccnc(Nc3ccccc3)n2)cc1 [SB-238039]      %Inh               0

Below are some compounds; for each one, tell me its %Inh.
1. Nc1nc(-c2ccc3c(N)n[nH]c3c2)cc(N2CCCC2)n1 [GSK2227430]
2. Cl.Nc1ncnc2occ(-c3ccc(NC(=O)Nc4cc(C(F)(F)F)ccc4F)cc3)c12 [SB-707548]
3. C[C@@H](Oc1cc(-n2cnc3ccc(NC(=O)NC(C)(C)C)cc32)sc1C(N)=O)c1ccccc1Cl [GSK346294]
4. CC(C)(C)n1cnc2c(N)ncnc21 [SKF-97359]
5. COc1ccc(COc2cc(-n3cnc4ccccc43)sc2C(N)=O)cc1 [GSK1024304]
6. COCCNC(=O)c1ccc(-c2cc(C(=O)NC3CC3)cc(F)c2C)cc1 [GW868318]

1: 0; 2: 0; 3: 0; 4: 0; 5: 0; 6: 3

Below are some compounds; for each one, tell me its %Inh.
1. Cc1cccc(-c2nc(-c3ccc(S(C)(=O)=O)cc3)sc2-c2ccncc2)c1
2. Cc1nnc(-c2ccc3ncc(-c4ccc(S(C)=O)cc4)n3c2)o1 (stereo not drawn)
3. Cc1cccc(-c2nc(Nc3ccc4ncsc4c3)c3ccccc3n2)n1 [GW867588]
4. N#Cc1c(N2CCOCC2)sc(-c2ccn[nH]2)c1-c1ccc(Cl)cc1
5. CCn1cnc2c(N)ncnc21 [GW345098]
6. NS(=O)(=O)c1cccc(-c2ccc3ncc(N4CCOCC4)nc3c2)c1 [GSK1535721]
7. O=C(Nc1n[nH]c2cc(-c3cccc(F)c3)ccc12)C1CC1 [SB-735464]

1. 2
2. 2
3. 0
4. 0
5. 0
6. 0
7. 0
